Target: UniProt:P35968
Sequence (P35968 786-1356 limits assumed): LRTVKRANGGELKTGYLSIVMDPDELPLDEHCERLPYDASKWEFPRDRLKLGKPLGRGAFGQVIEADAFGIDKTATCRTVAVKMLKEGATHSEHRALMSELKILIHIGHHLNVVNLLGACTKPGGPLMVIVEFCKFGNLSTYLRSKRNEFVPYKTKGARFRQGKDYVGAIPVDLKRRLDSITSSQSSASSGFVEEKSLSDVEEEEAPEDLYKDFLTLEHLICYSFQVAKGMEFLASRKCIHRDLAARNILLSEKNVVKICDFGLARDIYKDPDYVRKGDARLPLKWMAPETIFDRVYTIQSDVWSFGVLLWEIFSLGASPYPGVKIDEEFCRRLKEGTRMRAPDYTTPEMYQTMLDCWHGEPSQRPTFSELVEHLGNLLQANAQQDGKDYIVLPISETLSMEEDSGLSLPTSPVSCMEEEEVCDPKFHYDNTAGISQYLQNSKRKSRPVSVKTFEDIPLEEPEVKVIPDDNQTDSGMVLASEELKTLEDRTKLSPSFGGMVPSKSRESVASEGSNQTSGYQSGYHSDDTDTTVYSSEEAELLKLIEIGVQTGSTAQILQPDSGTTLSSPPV
pIC50: −log10 of the molar value.
Metric Name: pIC50

Q: Please report the measured pIC50 for COc1cc2ncnc(Oc3ccc(CC(=O)Nc4ccc(N(C)C)cn4)cc3)c2cc1OC tested on UniProt:P35968.
A: ~8.00

----------
Molecular target: phospho-Tyr751 PDGFRβ (Homo sapiens)
Construct: phosphorylation of PDGFR expressed on MG63 osteosarcoma cells; endogenous in cells
Sequence (P09619 33-1106): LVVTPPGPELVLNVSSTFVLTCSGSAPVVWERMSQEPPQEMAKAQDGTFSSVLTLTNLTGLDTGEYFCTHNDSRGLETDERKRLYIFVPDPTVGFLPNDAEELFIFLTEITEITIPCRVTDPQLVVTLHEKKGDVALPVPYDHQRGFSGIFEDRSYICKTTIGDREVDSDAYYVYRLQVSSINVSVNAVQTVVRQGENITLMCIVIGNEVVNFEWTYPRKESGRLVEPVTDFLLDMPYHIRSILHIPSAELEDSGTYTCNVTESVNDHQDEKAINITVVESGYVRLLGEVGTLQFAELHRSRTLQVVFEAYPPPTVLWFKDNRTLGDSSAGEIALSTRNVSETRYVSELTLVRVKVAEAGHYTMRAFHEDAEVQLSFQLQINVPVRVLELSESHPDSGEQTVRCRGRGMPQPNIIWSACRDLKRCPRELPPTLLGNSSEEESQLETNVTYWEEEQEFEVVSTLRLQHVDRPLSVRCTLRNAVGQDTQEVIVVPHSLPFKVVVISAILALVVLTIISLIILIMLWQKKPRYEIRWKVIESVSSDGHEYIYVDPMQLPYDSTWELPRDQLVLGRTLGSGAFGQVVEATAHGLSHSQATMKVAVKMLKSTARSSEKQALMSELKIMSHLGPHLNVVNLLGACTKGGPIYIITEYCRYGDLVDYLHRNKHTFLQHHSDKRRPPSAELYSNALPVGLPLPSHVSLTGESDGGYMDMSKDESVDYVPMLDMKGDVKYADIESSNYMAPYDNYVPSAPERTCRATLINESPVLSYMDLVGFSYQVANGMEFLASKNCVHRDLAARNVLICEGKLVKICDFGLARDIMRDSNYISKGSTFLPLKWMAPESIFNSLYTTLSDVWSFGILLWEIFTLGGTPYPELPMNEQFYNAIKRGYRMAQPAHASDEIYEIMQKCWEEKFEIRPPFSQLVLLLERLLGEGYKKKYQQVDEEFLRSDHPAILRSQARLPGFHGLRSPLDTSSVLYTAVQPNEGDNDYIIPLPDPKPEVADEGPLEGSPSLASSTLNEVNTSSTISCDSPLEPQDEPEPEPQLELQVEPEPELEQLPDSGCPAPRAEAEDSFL
Test: In vitro phospho-Tyr751 PDGFRβ ELISA assay
Conditions: Test (b); MG63 osteosarcoma cells stimulated with PDGFBB; read-out: IC50 versus phospho-Tyr751 PDGFRβ
Metric Name: IC50

- Smiles String: "COc1cc2ncnc(Oc3ccc(CC(=O)Nc4cccc(N(C)C)n4)cc3)c2cc1OC"
  Observed: "~1 nM"
- Smiles String: "COc1cccc(NC(=O)Cc2ccc(Oc3ncnc4cc(OC)c(OC)cc34)cc2)c1"
  Observed: "~1 nM"
- Smiles String: "COc1cc2ncnc(Oc3ccc(CC(=O)Nc4ccc(N(C)C)cn4)cc3)c2cc1OC"
  Observed: "~0.5 nM"

Q: Input COc1cc2ncnc(Oc3ccc(CC(=O)Nc4nc(C)cs4)cc3)c2cc1OC , output reported IC50.
A: ~2 nM

----------
# IC50 listing for each entry below
Target: PDGFRβ tyrosine kinase (Homo sapiens, UniProt P09619)
Construct: PDGFRα, PDGFRβ and KDR receptor cytoplasmic domains, obtained by expression of recombinant protein in insect cells; purchased Upstate Biotechnology Inc. 14-463; host or cells: Sf9 insect cells
Experiment: In vitro enzyme assay (ELISA), PDGFRβ
Format: biochemical
Conditions: Test (a); ATP 2.8 μM; read-out: IC50 versus PDGFRβ tyrosine kinase

Please review the following examples before continuing.
- Molecule: "COc1cc2ncnc(Oc3ccc(CC(=O)Nc4ccc(N(C)C)cn4)cc3)c2cc1OC [Example 6]"
  IC50: "~300 nM"
- Molecule: "COc1cccc(NC(=O)Cc2ccc(Oc3ncnc4cc(OC)c(OC)cc34)cc2)c1 [Example 1]"
  IC50: "~60 nM"

Q: Input COc1cc2ncnc(Oc3ccc(CC(=O)Nc4nc(C)cs4)cc3)c2cc1OC [Compound 17 within Example 9] , output reported IC50.
A: ~100 nM

----------
Molecular target: PDGFRα tyrosine kinase (Homo sapiens, UniProt P16234)
Construct: PDGFRα, PDGFRβ and KDR receptor cytoplasmic domains, obtained by expression of recombinant protein in insect cells; purchased Upstate Biotechnology Inc. 14-467; host or cells: Sf9 insect cells
Sequence (P16234 550-1089 limits assumed): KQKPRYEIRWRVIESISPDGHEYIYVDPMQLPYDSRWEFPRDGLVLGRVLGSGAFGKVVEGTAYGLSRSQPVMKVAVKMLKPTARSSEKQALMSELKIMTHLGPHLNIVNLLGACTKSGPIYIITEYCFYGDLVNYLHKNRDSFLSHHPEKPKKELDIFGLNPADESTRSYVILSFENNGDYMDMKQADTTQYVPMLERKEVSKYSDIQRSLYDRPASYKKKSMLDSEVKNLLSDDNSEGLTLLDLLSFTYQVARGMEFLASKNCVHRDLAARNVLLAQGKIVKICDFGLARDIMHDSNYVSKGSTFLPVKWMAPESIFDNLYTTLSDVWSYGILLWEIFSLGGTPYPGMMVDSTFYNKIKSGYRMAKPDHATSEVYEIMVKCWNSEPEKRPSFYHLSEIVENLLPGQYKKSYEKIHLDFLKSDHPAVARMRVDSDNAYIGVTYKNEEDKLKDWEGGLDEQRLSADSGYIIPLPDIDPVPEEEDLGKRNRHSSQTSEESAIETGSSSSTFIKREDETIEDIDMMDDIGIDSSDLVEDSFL
Assay: In vitro enzyme assay (ELISA), PDGFRα
Assay type: biochemical
Conditions: Test (a); ATP 14 μM; read-out: IC50 versus PDGFRα tyrosine kinase
Metric Name: IC50

Please review the following examples before continuing.
- Compound: "COc1cc2ncnc(Oc3ccc(CC(=O)Nc4ccc(N(C)C)cn4)cc3)c2cc1OC [Example 6]"
  IC50: "~400 nM"
- Compound: "COc1cc2ncnc(Oc3ccc(CC(=O)Nc4nc(C)cs4)cc3)c2cc1OC [Compound 17 within Example 9]"
  IC50: "~300 nM"

Q: Input COc1cccc(NC(=O)Cc2ccc(Oc3ncnc4cc(OC)c(OC)cc34)cc2)c1 [Example 1] , output reported IC50.
A: ~250 nM
